Experiment: qHTS assay for small molecule disruptors of the mitochondrial membrane potential (AID 720635)
Details: HepG2 mitochondrial membrane potential, Mito-MPS dye ratio; series mostly up to 83.2 µM
Inconclusive results are not listed. Active and inactive are the calls of the source. Calls follow the shape of the dose curve; as a rule, active = well fitted inhibition curve with a large enough effect in the signal ratio in the repeat runs; inconclusive = weak or mixed curves, or effect the other way; inactive = flat fitted curve, though single readings scatter; the % refers to the signal ratio.
Would you mind answering with one of these outcomes? yes for active, no for inactive

Example results:
C=C(C)C(=O)NCCC[N+](C)(C)C = no
CC(O)CN(CCCN(C)C)CCCN(C)C (stereo not drawn) = no
Nc1nc(F)nc2c1ncn2[C@@H]1O[C@H](CO)[C@@H](O)[C@@H]1O = no
C=CCOc1nc(OCC=C)nc(OCC=C)n1 = no
CO[Si](CCCNCCC[Si](OC)(OC)OC)(OC)OC = no
COC(=O)c1ccc(C(=O)OC)c(C(=O)OC)c1 = no
CC1=CCC2C(C1)C2(C)C (stereo not drawn) = yes
COc1cc(C)cc(O)c1 = no
CCN(CC)C(=O)c1ccc(O)c(OC)c1 = no
OCCN1C[C@H](O)[C@@H](O)[C@H](O)[C@H]1CO = no

q: Per the assay record, what outcome was assigned to CCCC(=O)O[C@]1(C(=O)CCl)[C@@H](C)C[C@H]2[C@@H]3CCC4=CC(=O)C=C[C@]4(C)[C@@]3(F)C(=O)C[C@@]21C ?
a: yes

q: Per the assay record, what outcome was assigned to O=C(O)c1cccc(C(=O)O)n1 ?
a: no

q: Per the assay record, what outcome was assigned to Nc1ccc2cc(S(=O)(=O)O)ccc2c1 ?
a: no

###

Assay: qHTS assay to identify small molecule agonists of the constitutive androstane receptor (CAR) signaling pathway - cell viability counter screen (AID 1224836); also: nearly all actives have a fitted effect of over 45% in size
Settings: HepG2-CYP2B6-hCAR viability, CellTiter-Fluor, 23 h, PK11195 added to every well; series mostly up to 92.4 µM
Results filed as inconclusive are left out. The source made the active and inactive calls. Calls come from the whole dose curve; as a rule, active = well fitted cell-killing curve with a large enough effect in the repeat runs; inconclusive = weak or mixed curves, or effect the other way; inactive = flat fitted curve, though single readings scatter.
experimental endpoint: viability change, negative = cytotoxic

Below are worked cases with known answers.
COC(=O)CCCCCCCCC(=O)OC = inactive
COc1nc(C)nc(N)n1 = inactive
Oc1ccc2c(c1)OC[C@@H](N1CCC(O)(c3ccc(F)cc3)CC1)[C@H]2O = inactive
C=C(C)[C@@H]1CCC2=CC(=O)C[C@@H](C)[C@]2(C)C1 = inactive
N#CCN(CC#N)CCN(CC#N)CC#N = inactive
CC(=O)OC(C)(C)C = inactive

Continue with the next compound.
q: Query: viability change, negative = cytotoxic; subject: NC(=O)c1c(Cl)cccc1Cl
a: inactive

###

Molecular target: Estrogen receptor (Homo sapiens)
Test: qHTS assay to identify small molecule agonists of the estrogen receptor alpha (ER-alpha) signaling pathway in the presence of an antagonist (AID 1259383); also: top concentration of the series differs between compounds; nearly all actives have a fitted effect of over 15% in size
Details: VM7Luc4E2 cells, ERE-luciferase, +ICI-182,780, 22 h; series mostly up to 92.4 µM
The source made the active and inactive calls. The call rests on the fitted dose curve.
experimental endpoint: activation

Below are worked cases with known answers.
CCCC(=O)O[C@]1(C(=O)CCl)[C@@H](C)C[C@H]2[C@@H]3CCC4=CC(=O)C=C[C@]4(C)[C@@]3(F)C(=O)C[C@@]21C = inactive
CCCc1ccc(N)cc1 = inactive
CN(C)C(=O)Nc1ccccc1 = inactive
OCC(CO)(CO)COCC(CO)(CO)CO = inactive
COC(=O)CCCC(=O)O = inactive

q: Form field - read-out: activation; system: Estrogen receptor (Homo sapiens); submitted item: C=CCn1c(=O)n([C@@H]2O[C@H](CO)[C@@H](O)[C@H]2O)c2nc(N)[nH]c(=O)c21
a: inactive

q: Form field - read-out: activation; system: Estrogen receptor (Homo sapiens); submitted item: CCCOc1ccccc1-c1nc2n[nH]nc2c(=O)[nH]1
a: inactive

q: Form field - read-out: activation; system: Estrogen receptor (Homo sapiens); submitted item: CN(C)CCOC(c1ccc(Cl)cc1)c1ccccn1 (stereo unspecified)
a: inactive

q: Form field - read-out: activation; system: Estrogen receptor (Homo sapiens); submitted item: COC(=O)[C@H]1[C@H]2C[C@@H]3c4[nH]c5cc(OC)ccc5c4CCN3C[C@H]2C[C@@H](OC(=O)COc2ccc(OC)cc2)[C@@H]1OC
a: inactive

q: Form field - read-out: activation; system: Estrogen receptor (Homo sapiens); submitted item: C=C(C)C1CC=C(C)C(O)C1 (stereo unspecified)
a: inactive

q: Form field - read-out: activation; system: Estrogen receptor (Homo sapiens); submitted item: C=CCOCC(O)CS(=O)(=O)O (stereo unspecified)
a: inactive

All figures here come from PubChem BioAssay (Tox21).
